- assay.system: GalNAc6S(b1-4)GlcNAc
- experiment.description: glycan array binding signal (z-score within array); higher = stronger binding
- condition.details: glycan notation: IUPAC condensed, linker removed
The entries come from a sample that favours the strongest signals as a whole.
property.name: glycan array binding signal (z-score)
Answers are plain numbers.

Lab note: measured glycan array binding signal (z-score) of Mnn9-2N3 (Aspergillus fumigatus) (protein) MAVARRMRRTNPITLLLAAILAIGFFIFVLSPSTTSASPVKAGSASSSSTSQQRREDNAAENPLSPPTKPFFKSQPVRHDGQQAPPPVVQYNLNQLSSTSTSAANGERILILTPMARFVPEYWDNVVKLTYPHELISIGFIIPKNKEGNAALAALEAAIAKTQSGPIDKRFASISILRQDFEPPLQSQDEKERHKISNQKARRESMSRARNSLLFTTLGPATAWVLWLDADIVETPPTLIQDLTAHDHPVLVPNCYQRYYNSEKKKMDVRPYDYNSWIDSSTAQSMAAEMGPDEILLEGYAEMPTYRTLMAHLADTANPNPKKVIELDGVGGTALMVKAEVHRDGAMFPAFPFYHLVETEGFAKMAKRLGYSVYGLPDYFVSRNFFFFFFFFFFG was -0.802

The reported numbers originate from the supplement of paper PMC8728848.
